Test system: Noggin (protein binding on small-molecule microarray)
Assay: small molecules binding Noggin protein – biochemical, 635/667 nm fluorescence, primary screen (AID 1095);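 also: score merges 667 nm feature fluorescence with signal to noise over triplicate slides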
Settings: 635 nm fluorescence, higher = more signal
REPORTED_ENDPOINT: composite z-score
A bare number is all that is needed in reply.

Q: Need composite z-score, item O=C1C[C@@](C(=O)NCc2ccccc2)(c2ccc([N+](=O)[O-])cc2)[C@@H](c2ccc(CO)cc2)N1CC12CC3CC(CC(C3)C1)C2
A: 1.52

Q: Need composite z-score, item CN1C(=O)C2C=CC(C(O)c3c(F)cccc3Cl)N(NC(=O)OC(C)(C)C)C2C1=O (centres undefined)
A: -0.388

Q: Need composite z-score, item COC(=O)C(CC#Cc1ccc2c(c1)[C@]1(C(=O)N2)[C@H](c2ccccc2OCCO)N2[C@H](c3ccccc3)[C@H](c3ccccc3)OC(=O)[C@H]2[C@@H]1C(N)=O)C(=O)OC
A: 0.0814

Q: Need composite z-score, item COc1cc(CO)cc(I)c1O[C@H]1C=C(C(=O)NCCO)C[C@@H](N(C(=O)c2cc3ccccc3oc2=O)C2CCCCCC2)[C@@H]1O
A: 0.437

Q: Need composite z-score, item COCCOC(=O)N1C(=O)[C@@]2(c3cc(C#CC4(O)CCCCCC4)ccc31)[C@H](C(=O)Nc1nc3ccccc3s1)[C@H]1C(=O)O[C@H](c3ccccc3)[C@H](c3ccccc3)N1[C@@H]2c1ccccc1OCCO
A: 1.38

Q: Need composite z-score, item CC(C)=CCCC(C)=CC(O)C1C=CC2C(=O)N(c3ccccc3)C(=O)C2N1Nc1ccc(C(C)C)cc1 (centres undefined)
A: 0.0026

Q: Need composite z-score, item CN1CCC(CCCO)=CC1c1cccs1 (centres undefined)
A: 0.0615

Q: Need composite z-score, item COCCCNC(=O)[C@@]1(Cc2ccccc2CN=[N+]=[N-])N=C(c2ccc(OCCCO)cc2)O[C@H]1c1ccccc1CN=[N+]=[N-]
A: 0.406

Q: Need composite z-score, item COC(=O)c1c2oc(c1C(=O)OC)C(=O)N[C@@H](C(C)C)Cn1cc(nn1)C1(CCCCC1)NC(=O)N[C@H](CO)CC2
A: 1.59
